# Tested on: OVCAR-4 ovarian
# experimentalDetails: NCI-60 one-dose screen, 48 h (100 = growth as untreated, 0 = no growth, -100 = all killed)
# conditionLabel: 10 µM
The panel holds about 83,000 compounds, 20% with a hit somewhere; the sample as a whole holds those more often.
measuredQuantity: growth (%)
Return type: number; implicit unit %.

COc1ccc(C(=O)CSc2nnc(-c3cc(-c4ccccc4)nc4ccccc34)o2)cc1 | 107
CNc1cc(C(=O)O)nc(NC)n1 | 97.6
COc1cc2c(c(OC)c1)C1c3cc(OC)ccc3NC(=O)N1CC2 (stereo not given) | 96.2
CC(C)c1ccc(C(=O)Nc2nc3ccc(O)cc3s2)cc1 | 33.9

// next entry
### Prompt Using the record for CN(C)CCOc1ccc(/C(=C(/CCCl)c2ccccc2)c2ccccc2)cc1 , report its growth.
### Response 32.9
